Taken from ChEMBL document CHEMBL4808200.

# procedure details: Unbound clearance in Beagle dog at 0.5 mg/kg, iv administered as 1 hr infusion on day 1 and day 7 to achieve a target dose of 1 mg/kg by LC-MS/MS analysis
# Assay type: ADME, organism-based, Canis lupus familiaris
# condition description: in vivo, 168 h, dose 0.5-1 mg/kg, time 7 day
Classification field: enter YES for CL free values not below 6 L/h/kg, NO for values below it.

molecule: CNC(=O)c1cc(C(=O)NCCC[C@H]2OC[C@H](N)CO2)cc(Cc2ccccc2)n1
group label: YES

molecule: CNC(=O)c1cc(C(=O)N[C@H]2[C@@H]3COC[C@@H]32)cc([C@@H](C)c2ccccc2)n1
group label: YES

molecule: CNC(=O)c1cc(C(=O)N[C@H]2[C@@H]3COC[C@@H]32)cc(C(OC)c2ccccc2)n1 (some centres not stated)
group label: NO

molecule: CNC(=O)c1cc(C(=O)N[C@H]2[C@@H]3COC[C@@H]32)cc(Cc2cccc3[nH]ccc23)n1
group label: NO

molecule: CNC(=O)c1cc(C(=O)N[C@H]2C[C@@H]2C)cc(Cc2cccc3[nH]ccc23)n1
group label: NO

molecule: CNC(=O)c1cc(C(=O)N[C@H]2[C@@H]3COC[C@@H]32)cc(Cc2ccccc2)n1
group label: YES
